# Target: T1, hu-CD74 antigen (R&D SYSTEMS catalog #3590-CD-050) (human, UniProt P04233-2 73-232, limits assumed)
# T1 construct: Bought antigen; also called rhCD74; human CD74
# T1 sequence (looked up): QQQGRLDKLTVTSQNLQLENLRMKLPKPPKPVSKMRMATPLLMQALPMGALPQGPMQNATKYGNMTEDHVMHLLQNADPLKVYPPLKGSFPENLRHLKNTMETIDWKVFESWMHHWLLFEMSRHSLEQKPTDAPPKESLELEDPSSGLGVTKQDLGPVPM
# Experiment: SPR (Biacore T200), captured on anti-human Fc, rhCD74 analyte
In this section, each of the binders is paired with its reported kon.
Give just the number in M⁻¹ s⁻¹; leave the unit off.

Reference set (4 entries):
[[record]]
binder = "1251-A02 heavy chain paired with VL SEQ ID NO: 272 (antibody, V domains shown, Selected from a Fab library; VH3-33 / Vk1-12) VH: QVQLVESGGGVVQPGRSLRLSCAASGFAFSDHGMHWVRQAPDKGLEWVAVIWYDGSHKIYADSVKGRFTISRDNSKNTLYLQMNSLRAEDTAVYYCARGGSLAGGAVYGTDVWGQGTTVTVSS VL: DIQMTQSPSSLSASVGDRVTITCRASQGISSWLAWYQQKPEKAPKSLIYAASSLQSGVPSRFSGSGSGTDFTLTISSLQPEDFATYYCQQYNSYPLTFGGGTKVEIK"
quantitative_result = "1.51e+06"

[[record]]
binder = "1275-G02 light chain paired with HC 1251-F07 (SEQ ID NO: 311) (antibody, human IgG1, V domains shown) VH: QVQLVESGGGVVQPGRSLRLSCAASGFTFSSHGMHWVRQAPDKGLEWVAVIWDDGSNEVYADSVKGRFTISRDNSKNTLYLQMNSLRAEDTAVYYCARGGTRIRGLRYGTDVWGQGTTVTVSS VL: DIQMTQSPSSLSASVGDRVTITCRASQGLGSFLAWYQQKPEKAPKSLIYLGNLLQIGVPSRFSGSGSGTDFTLTISSLQPEDFATYYCQQYNAYPLTFGGGTKVEIK"
quantitative_result = 563000

[[record]]
binder = "1251-F07 heavy chain paired with VL SEQ ID NO: 272 (antibody, V domains shown) VH: QVQLVESGGGVVQPGRSLRLSCAASGFTFSSHGMHWVRQAPDKGLEWVAVIWDDGSNEVYADSVKGRFTISRDNSKNTLYLQMNSLRAEDTAVYYCARGGTRIRGLRYGTDVWGQGTTVTVSS VL: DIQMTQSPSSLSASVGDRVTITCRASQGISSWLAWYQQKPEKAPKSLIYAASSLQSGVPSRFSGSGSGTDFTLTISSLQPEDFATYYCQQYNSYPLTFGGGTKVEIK"
quantitative_result = 678000

[[record]]
binder = "1251-G02 heavy chain paired with VL SEQ ID NO: 272 (antibody, V domains shown) VH: QVQLVESGGGVVQPGRSLRLSCAASGFTFSSYGMHWVRQAPDKGLEWVAVIWHDGSKDYYADSVKGRFTISRDNSKNTLYLQMNSLRAEDTAVYYCARGGQLDHGAIYGLDVWGQGTTVTVSS VL: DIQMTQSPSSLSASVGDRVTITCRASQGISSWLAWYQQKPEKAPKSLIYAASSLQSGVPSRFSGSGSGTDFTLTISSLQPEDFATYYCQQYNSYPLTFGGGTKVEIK"
quantitative_result = "1.29e+06"


Lab note: next binder to report on.
Query :: Item under review: 1251-A06 heavy chain paired with VL SEQ ID NO: 272 (antibody, V domains shown) VH: QVQLVESGGGVVQPGRSLRLSCAASGFDFSSYGMHWVRQAPDKGLEWVAVIWDDGSDRYYADSVKGRFTISRDNSKNTLYLQMNSLRAEDTAVYYCARGGTRVLGAIHGTDVWGQGTTVTVSS VL: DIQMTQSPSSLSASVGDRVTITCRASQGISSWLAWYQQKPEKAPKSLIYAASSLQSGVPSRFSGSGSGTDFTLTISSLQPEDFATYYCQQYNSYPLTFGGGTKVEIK . Reported kon?
Result :: 873000

This collection of values is drawn from patent US20170253656A1.
